B1: tRNA (parent)
chain: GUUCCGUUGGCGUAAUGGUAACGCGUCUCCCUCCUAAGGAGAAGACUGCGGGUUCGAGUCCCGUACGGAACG

variants of: B1; assay: yeast fitness relative to wild type (ratio to wild type); higher = fitter; tRNA-Arg(CCU), competitive growth, 37 C, YPD
Fewer inactive variants are shown than the library holds.
endpoint: yeast fitness
Lab note: write the figure by itself, no unit.

INPUT: Please look up its yeast fitness: A20C U28C C34A
OUTPUT: 0.791

INPUT: Another variant to check: U32A A70U
OUTPUT: 0.857

INPUT: Another variant to check: U8A G12A
OUTPUT: 0.824

INPUT: Another variant to check: C49U U59C C62G
OUTPUT: 0.503
